Sourced from the supplement of paper PMC6555819

# System: PXR homodimer (NR concentration 270 nM)
# Test name: PBM binding z-score (relative to random genomic background probes); higher = stronger binding; sequences stand for … in GC…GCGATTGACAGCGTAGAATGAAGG
As shown below, each of these sequences has a reported PBM binding z-score value.
// return a plain number; no unit text

Below: 6 sequences and their reported PBM binding z-score.
* TCTTGTAGATCAAAGGTGAAGAAAGCCGAAGCCT | -0.554
* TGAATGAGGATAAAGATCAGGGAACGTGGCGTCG | -0.0385
* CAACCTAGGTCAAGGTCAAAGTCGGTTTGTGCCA | 1.48
* TCTAGTTGGTGAAAGGTCACACACTCGAAATGCG | 2.06
* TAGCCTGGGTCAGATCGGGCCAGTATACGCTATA | -0.947
* CCTCGGAGGATAGAAGGTCAGAGCTGTCCGCTTT | -0.0463

Check the records and state PBM binding z-score for `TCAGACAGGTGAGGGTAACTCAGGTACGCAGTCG`
-0.0185

// Input: `ATCGACAGGTCGTGAGGTGAGTATACAGAAAGGC` . Output its PBM binding z-score only.
0.267

Hello, please tell me recorded PBM binding z-score for this one: `CCTTGCGGGTCACTCCAGGTTATAGCATCGGAGT`
0.258

Consider the sequence `TTACCAAGGCGAAGGTCGTTGATCCCTCTGTAGA` . State its measured PBM binding z-score.
0.0255

Return reported PBM binding z-score. Input sequence: `GGAACGAGGGCAAAGTTAATAGCATCTGTCGACG`
0.225

Please look at this sequence and report its PBM binding z-score: `ATCGAAAGGTCGAAGGTGAGTAAACCCACCCGAA`
0.0457

Look up and state reported PBM binding z-score for `ATAGAAAGGTCGTGAGGTGAGTATACAGAAAGGC`
0.712
